# System: Saccharomyces cerevisiae
# ASSAY: protein stability index of tFT-peptide fusion (C-terminal peptide) (PSI (0-1 scale)); higher = more stable (slower turnover)
# CONDITION SUMMARY: genetic background: wild type; temperature: 37 C
Provide the recorded protein stability index for the entries that follow.
No unit in the answer, please; the number alone is enough.

The sequence identified as `RRQQNHRQLCAT` registered its protein stability index at 0.518

The sequence identified as `CPICDFLFLALF` registered its protein stability index at 0.598

The sequence identified as `LFPLLCLLLPSL` registered its protein stability index at 0.628

The sequence identified as `FVFCGVVFLFLL` registered its protein stability index at 0.462

The sequence identified as `SFRIWLFRFFFV` registered its protein stability index at 0.541

The sequence identified as `SGLVHVLILGAC` registered its protein stability index at 0.506

The sequence identified as `RRQLVLVLSWVI` registered its protein stability index at 0.506

The sequence identified as `WQVPYQRLAILF` registered its protein stability index at 0.346

The sequence identified as `FLCLLFYLSFFS` registered its protein stability index at 0.548

The sequence identified as `GVLTVVLQVGVV` registered its protein stability index at 0.407

---

# Test system: Saccharomyces cerevisiae
# ASSAY: protein stability index of tFT-peptide fusion (C-terminal peptide) (PSI (0-1 scale)); higher = more stable (slower turnover)
# CONDITION SUMMARY: genetic background: wild type; temperature: 30 C
Provide the recorded protein stability index for the entries that follow.
No unit in the answer, please; the number alone is enough.

The sequence identified as `YVSSCLLWLCFV` registered its protein stability index at 0.287

The sequence identified as `SSCFLLFRVVWR` registered its protein stability index at 0.244

The sequence identified as `CLVFGFLFFIVI` registered its protein stability index at 0.35

The sequence identified as `YKLRAVFVCSVT` registered its protein stability index at 0.34

The sequence identified as `GSDGVGGTVLYA` registered its protein stability index at 0.666

---

# System: Saccharomyces cerevisiae
# ASSAY: protein stability index of tFT-peptide fusion in wild type (PSI (0-1 scale)); higher = more stable (slower turnover)
# CONDITION SUMMARY: genetic background: wild type
ASSAY READOUT: protein stability index
No unit in the answer, please; the number alone is enough.

The sequence identified as `RSLHVLLPLYFR` registered its protein stability index at 0.273

The sequence identified as `PDLAASFWRVVG` registered its protein stability index at 0.151

The sequence identified as `PDKRNHLIKLLND` registered its protein stability index at 0.638

The sequence identified as `PSLAASPWRVVG` registered its protein stability index at 0.519

The sequence identified as `ARWRVGLWDGAS` registered its protein stability index at 0.705

The sequence identified as `ARWRVGPWRGAS` registered its protein stability index at 0.577

The sequence identified as `FSMLWTFRYWVN` registered its protein stability index at 0.0376

The sequence identified as `ESLRVLLPLYFR` registered its protein stability index at 0.308

The sequence identified as `CTSCGMKFRTNN` registered its protein stability index at 0.304

The sequence identified as `VRGAVGGWRLRG` registered its protein stability index at 0.636

The sequence identified as `PDKRNHLIKCLN` registered its protein stability index at 0.169

The sequence identified as `ARFRVGLWRGAS` registered its protein stability index at 0.56

The sequence identified as `LPILRQKMNHQN` registered its protein stability index at 0.125

The sequence identified as `RVTRLDAIHFRI` registered its protein stability index at 0.66

The sequence identified as `LKIMRQKMNHQN` registered its protein stability index at 0.23

The sequence identified as `LVLYLSCVACIN` registered its protein stability index at 0.0137

The sequence identified as `GLYMCSVGCWRR` registered its protein stability index at 0.62

The sequence identified as `RVTRWDAIYFRI` registered its protein stability index at 0.165

The sequence identified as `GLYECSVGCWFR` registered its protein stability index at 0.526

The sequence identified as `ARPRVGLWRGAS` registered its protein stability index at 0.65

The sequence identified as `RKIQPLPVQFLN` registered its protein stability index at 0.0533

The sequence identified as `CLVSLGILLFFR` registered its protein stability index at 0.276

The sequence identified as `PHLAASFWRVVG` registered its protein stability index at 0.148

The sequence identified as `PSLAASFWRHVG` registered its protein stability index at 0.181

The sequence identified as `PDTRNHLIKLLN` registered its protein stability index at 0.183

The sequence identified as `RKLRVLLPLYFR` registered its protein stability index at 0.282

The sequence identified as `TKHKKGQKQKIN` registered its protein stability index at 0.118

The sequence identified as `VRGAVGGWFLVG` registered its protein stability index at 0.626

The sequence identified as `RVTRLDCIYFRI` registered its protein stability index at 0.367

The sequence identified as `RVFRLDAIYFRI` registered its protein stability index at 0.319

The sequence identified as `GLYMCSVFCWFR` registered its protein stability index at 0.222

The sequence identified as `LKVLRQKMNHQN` registered its protein stability index at 0.177

The sequence identified as `LVVYLSCVACAN` registered its protein stability index at 0.0124

The sequence identified as `RVTRLDAIYFRIN` registered its protein stability index at 0.0776

The sequence identified as `IKHKKGQKQKIN` registered its protein stability index at 0.109

The sequence identified as `ARWSVGLWRGAS` registered its protein stability index at 0.448

The sequence identified as `SVTRLDAIYFRI` registered its protein stability index at 0.363

The sequence identified as `VRGAPGGWRLVG` registered its protein stability index at 0.165

The sequence identified as `WSLRVLLPLYFR` registered its protein stability index at 0.269

The sequence identified as `VRGAVGGWRLVT` registered its protein stability index at 0.184

The sequence identified as `KKHKPGQKQKIN` registered its protein stability index at 0.143

---

Provide the recorded protein stability index for the entries that follow.
# System: Saccharomyces cerevisiae
# ASSAY: protein stability index of tFT-peptide fusion (C-terminal peptide) (PSI (0-1 scale)); higher = more stable (slower turnover)
# CONDITION SUMMARY: genetic background: cdc53-1; temperature: 37 C
No unit in the answer, please; the number alone is enough.

The sequence identified as `YYVIFHLFSFLI` registered its protein stability index at 0.478

The sequence identified as `ALWFVLISILCL` registered its protein stability index at 0.353

The sequence identified as `GLDLLTKFSKEC` registered its protein stability index at 0.734

The sequence identified as `PPVAYVCHLYVT` registered its protein stability index at 0.614

The sequence identified as `WDPKISVFVLID` registered its protein stability index at 0.53

The sequence identified as `VLYSRFPPPLIA` registered its protein stability index at 0.537

The sequence identified as `LVGYSVFVLFFS` registered its protein stability index at 0.506

The sequence identified as `SLTHTPLGVTRT` registered its protein stability index at 0.748

The sequence identified as `FVFIFIRVFFFR` registered its protein stability index at 0.207

The sequence identified as `VVVLFGRLVVIC` registered its protein stability index at 0.611

The sequence identified as `FLVFRPPALFLR` registered its protein stability index at 0.0985

The sequence identified as `ASCFFLFVLRVF` registered its protein stability index at 0.113

The sequence identified as `SRRRRLVSKFLA` registered its protein stability index at 0.7

The sequence identified as `LPHIFFCLFSLL` registered its protein stability index at 0.611

The sequence identified as `RGCFVLRKTHLL` registered its protein stability index at 0.715

The sequence identified as `LLVFSLLRPFLF` registered its protein stability index at 0.643

The sequence identified as `FLACYSSFLFVS` registered its protein stability index at 0.576

The sequence identified as `LWRFFFVAFVGI` registered its protein stability index at 0.509

The sequence identified as `ARFCFRIFSFAS` registered its protein stability index at 0.178

---

# Tested on: Saccharomyces cerevisiae
# ASSAY: protein stability index of tFT-peptide fusion (C-terminal peptide) (PSI (0-1 scale)); higher = more stable (slower turnover)
# CONDITION SUMMARY: genetic background: cdc53-1; temperature: 37 C
ASSAY READOUT: protein stability index
No unit in the answer, please; the number alone is enough.

The sequence identified as `DFRGVSVIRHQV` registered its protein stability index at 0.733

The sequence identified as `RVLVEIVYFKVF` registered its protein stability index at 0.395

The sequence identified as `RMTFFGFTVKML` registered its protein stability index at 0.745

The sequence identified as `GCLFASWPLAVC` registered its protein stability index at 0.109

The sequence identified as `SGRKNQRILGLY` registered its protein stability index at 0.733

The sequence identified as `GFSFFFIFWFFF` registered its protein stability index at 0.422

The sequence identified as `GLNKGKYIKLYT` registered its protein stability index at 0.756

The sequence identified as `LFVGLVSFRIGA` registered its protein stability index at 0.573

The sequence identified as `VTSVARVVLHLL` registered its protein stability index at 0.681

The sequence identified as `GDSVRVIIFCLN` registered its protein stability index at 0.707

The sequence identified as `FLFWVLLVGCSF` registered its protein stability index at 0.299

The sequence identified as `RICACHGIRFIP` registered its protein stability index at 0.742

The sequence identified as `SRWMWFDWLRRA` registered its protein stability index at 0.736

The sequence identified as `LIARYTFLFCLC` registered its protein stability index at 0.611

The sequence identified as `HPPPTLVPPHPR` registered its protein stability index at 0.709

The sequence identified as `VKVIILYKIIEV` registered its protein stability index at 0.494

The sequence identified as `SGLVHVLILGAC` registered its protein stability index at 0.516

The sequence identified as `HVCKLAMFQWYF` registered its protein stability index at 0.713

The sequence identified as `IIGCIAICLMVN` registered its protein stability index at 0.214
